- System: S. aureus DSM 20231;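 note: first quartile when negative (synergy) and third quartile when positive (antagonism)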
- Procedure Details: Bliss interaction score (quartile over a dose matrix) (fitness difference); higher = more antagonism (negative = synergy)
Hi, to clarify the labels: 1 covers Bliss interaction score from -0.05 upward, -1 covers anything below -0.05.

| Compound | Class Name |
| --- | --- |
| Cn1c(=O)c2c(ncn2C)n(C)c1=O [Caffeine] + CC[C@H]1OC(=O)[C@H](C)[C@@H](O[C@H]2C[C@@](C)(OC)[C@@H](O)[C@H](C)O2)[C@H](C)[C@@H](O[C@@H]2O[C@H](C)C[C@H](N(C)C)[C@H]2O)[C@](C)(OC)C[C@@H](C)C(=O)[C@H](C)[C@@H](O)[C@]1(C)O [Clarithromycin] | -1 |
| C[C@@H]1O[C@@H]1P(=O)(O)O [Fosfomycin] + C[n+]1ccc(-c2cc[n+](C)cc2)cc1 [Paraquat] | -1 |
| N#CC(C#N)=NNc1cccc(Cl)c1 [CCCP] + CCN(CC)CCOC(=O)c1ccc(N)cc1 [Procaine] | -1 |
| O=C(O)c1cn(C2CC2)c2cc(N3CCNCC3)c(F)cc2c1=O [Ciprofloxacin] + CC[C@H]1OC(=O)[C@H](C)[C@@H](O[C@H]2C[C@@](C)(OC)[C@@H](O)[C@H](C)O2)[C@H](C)[C@@H](O[C@@H]2O[C@H](C)C[C@H](N(C)C)[C@H]2O)[C@](C)(O)C[C@@H](C)C(=O)[C@H](C)[C@@H](O)[C@]1(C)O [Erythromycin] | 1 |
| CC(=O)Oc1ccccc1C(=O)O [Acetylsalicylicacid] + CN[C@@H]1[C@H](O[C@H]2[C@H](O[C@H]3[C@H](O)[C@@H](O)[C@H](N=C(N)N)[C@@H](O)[C@@H]3N=C(N)N)O[C@@H](C)[C@]2(O)C=O)O[C@@H](CO)[C@H](O)[C@H]1O [Streptomycin] | -1 |
| O=C(O)c1cn(C2CC2)c2cc(N3CCNCC3)c(F)cc2c1=O [Ciprofloxacin] + Cc1cc(NS(=O)(=O)c2ccc(N)cc2)no1 [Sulfamethoxazol] | 1 |
| Cc1ncc([N+](=O)[O-])n1CCO [Metronidazole] + CN(C)c1cc(NC(=O)CNC(C)(C)C)c(O)c2c1C[C@H]1C[C@H]3[C@H](N(C)C)C(O)=C(C(N)=O)C(=O)[C@@]3(O)C(O)=C1C2=O [Tigecycline] | 1 |
| C[C@H]1c2cccc(O)c2C(=O)C2=C(O)[C@]3(O)C(=O)C(C(N)=O)=C(O)[C@@H](N(C)C)[C@@H]3[C@@H](O)[C@@H]21 [Doxycycline] + CN[C@@H]1[C@H](O)[C@H](NC)[C@H]2O[C@@]3(O)C(=O)C[C@@H](C)O[C@H]3O[C@@H]2[C@H]1O [Spectinomycin] | 1 |
| CO/N=C(\C(=O)N[C@@H]1C(=O)N2C(C(=O)O)=C(COC(C)=O)CS[C@H]12)c1csc(N)n1 [Cefotaxime] + Clc1ccc(COC(Cn2ccnc2)c2ccc(Cl)cc2Cl)c(Cl)c1 [Miconazole] | -1 |
| CN(C)[C@@H]1C(O)=C(C(N)=O)C(=O)[C@@]2(O)C(O)=C3C(=O)c4c(O)ccc(Cl)c4[C@@](C)(O)[C@H]3C[C@@H]12 [Clortetracycline] + CN(N=O)C(=O)N[C@@H](C=O)[C@@H](O)[C@H](O)[C@H](O)CO [Streptozotocin] | 1 |
| O=C(O)c1cn(C2CC2)c2cc(N3CCNCC3)c(F)cc2c1=O [Ciprofloxacin] + COc1ccc(C[C@H](N)C(=O)N[C@H]2[C@@H](O)[C@H](n3cnc4c(N(C)C)ncnc43)O[C@@H]2CO)cc1 [Puromycin] | -1 |
| CC1(C)S[C@@H]2[C@H](NC(=O)Cc3ccccc3)C(=O)N2[C@H]1C(=O)O [PenicillinG] + COc1cc(Cc2cnc(N)nc2N)cc(OC)c1OC [Trimethoprim] | 1 |
| Cc1ncc([N+](=O)[O-])n1CCO [Metronidazole] + CN(N=O)C(=O)N[C@@H](C=O)[C@@H](O)[C@H](O)[C@H](O)CO [Streptozotocin] | 1 |
| CO/N=C(\C(=O)N[C@@H]1C(=O)N2C(C(=O)O)=C(COC(C)=O)CS[C@H]12)c1csc(N)n1 [Cefotaxime] + O=C(N[C@H](CO)[C@H](O)c1ccc([N+](=O)[O-])cc1)C(Cl)Cl [Chloramphenicol] | 1 |
| O=C(O)c1cn(C2CC2)c2cc(N3CCNCC3)c(F)cc2c1=O [Ciprofloxacin] + CN(N=O)C(=O)N[C@@H](C=O)[C@@H](O)[C@H](O)[C@H](O)CO [Streptozotocin] | 1 |
| C[C@H]1c2cccc(O)c2C(=O)C2=C(O)[C@]3(O)C(=O)C(C(N)=O)=C(O)[C@@H](N(C)C)[C@@H]3[C@@H](O)[C@@H]21 [Doxycycline] + C/C(=C\C(=O)OCCCCCCCCC(=O)O)C[C@@H]1OC[C@H](C[C@@H]2O[C@H]2[C@@H](C)[C@H](C)O)[C@@H](O)[C@H]1O [Pseudomonic acid] | 1 |
